Below: a set of entries, each annotated with reported growth inhibition.
# testName: NCI Yeast Anticancer Drug Screen. Data for the CLN2oe strain (AID 163);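 note: 0% = growth of vehicle-only control cultures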
# settings: S. cerevisiae CLN2oe strain, at 100.0 µM, stronger effect = higher value
About 79,000 compounds went through this panel and 15% of them were active in at least one assay; those are over-represented in the sample as a whole.
Please reply with the bare figure in % and do not write the unit itself.

compound	numericReadout
COc1ccc(C2CC(C)(N3CCCC3)Oc3cc4c(cc32)OCO4)cc1 (stereo not given)	68

-- ask Record request: growth inhibition value, item `CCCCCCCCCCCCCCCCCCNC(=S)/N=C/c1c(O)c2ccccc2[nH]c1=O`
-- reply 3

-- ask Now this one: COC1=CCC23C(=O)C=CC(=O)C2(C1)C(=O)c1ccccc1C3=O (stereo not given)
-- reply 92

-- ask Same question, `O=C1C(=O)N(c2ccccc2)[C@@]2(c3ccccc3)C(=Nc3ccccc3)OC(c3ccccc3)=C12` this time
-- reply 47

-- ask What would you report for `O=[N+]([O-])c1cc[n+]([O-])c(Cl)c1` ?
-- reply 99

-- ask Then O=C1C(/C=C/c2ccc(Cl)cc2)=NNC2N1N=C1NC(=O)C3(NN12)c1ccccc1-c1ccccc13 (stereo not given) ?
-- reply 14

-- ask Similarly, `CSC(=S)N/N=C/c1ccccc1` ?
-- reply 17

-- ask Entry `CN(C)CCCn1c2c3ccccc3ccc2c2oc(=O)c3ccccc3c21` please
-- reply 97

-- ask What would you report for `O=C(/C=C/c1ccsc1)c1cccs1` ?
-- reply 84

-- ask Another: `Cc1ccc(S(=O)(=O)NC(=O)C2C(=O)CC3(CCCCC3)CC2=O)cc1`
-- reply 84

-- ask What would you report for `CC1(C)OC(=O)C(=Cc2ccc([N+](=O)[O-])s2)C(=O)O1` ?
-- reply 97

-- ask What do we get for `CN(C)CCNc1ccc2ncn3c4ccc(O)cc4c(=O)c1c23` ?
-- reply 8

====

# testName: NCI Yeast Anticancer Drug Screen. Data for the wt2 strain (AID 169);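 note: 0% = growth of vehicle-treated yeast cultures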
# settings: S. cerevisiae wt2 strain growth inhibition; at 100.0 µM
Compounds without any hit were thinned out: in the full panel of roughly 79,000, 15% have a hit. Active and inactive are the calls of the source. Cut-off read from the data, not from the text of the source: active = growth inhibition above about 70%; inactive = the rest.
Result category, one only: active, inactive

-- ask Hi, do you know how COC1=CCC23C(=O)C=CC(=O)C2(C1)C(=O)c1ccccc1C3=O (stereo unspecified) came out in this test?
-- reply active

-- ask Please answer likewise for N#CCC(=O)N/N=C(\c1ccccc1)C(c1ccccc1)C1(O)C(=O)Nc2c(Cl)ccc(Cl)c21 (stereo unspecified)
-- reply inactive

====

# testName: NCI Yeast Anticancer Drug Screen. Data for the wt1 strain (AID 149);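 note: 0% = growth of vehicle-treated wt1 cultures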
# settings: S. cerevisiae wt1 strain (SPY 50644) growth inhibition; at 33.0 µM
About 79,000 compounds went through this panel and 15% of them were active in at least one assay; those are over-represented in the sample as a whole. Calls of active or inactive are those of the source. Rule as the data show it: active = growth inhibition above about 70%; inactive = the rest.
Can you answer with just one of these options? YES = active, NO = inactive

-- ask Record request — test call for CCN1CCC(O)(c2ccc(Oc3ccc(C)cc3)cc2)C(C(=O)c2ccc(Oc3ccc(C)cc3)cc2)C1 (stereo unspecified)
-- reply YES

-- ask // next record `ClCCCOc1c(Cl)cc(Cl)cc1Cl`
-- reply NO

====

# testName: NCI Yeast Anticancer Drug Screen. Data for the mec2-1 strain (AID 157)
# settings: S. cerevisiae mec2-1 strain, at 33.0 µM
About 79,000 compounds went through this panel and 15% of them were active in at least one assay; those are over-represented in the sample as a whole. Active and inactive are the calls of the source. No stated cut-off is given here; in the data, active means growth inhibition above about 70%; inactive means the rest.
Respond with a class label; see active, inactive

Worked examples, 5 compounds total:
O=C1c2cccc3cccc(c23)C(=O)N1CCNCCN1C(=O)c2cccc3cccc(c23)C1=O inactive
CC(C)CCC[C@@H](C)[C@H]1CC[C@H]2[C@@H]3CC[C@H]4C[C@H](N)CC[C@]4(C)[C@H]3CC[C@]12C inactive
CN(C)CCCn1c2c3ccccc3ccc2c2oc(=O)c3ccccc3c21 active
CN(C)/C(=N/C(=S)Nc1ccccc1)SCc1ccccc1 inactive
O=Cc1ccccc1C=O inactive

Now examine the next entry.
-- ask I'd appreciate the recorded outcome for `Oc1ccc(C2(c3ccc(O)cc3)CCCC2)cc1` from this test.
-- reply active

The measurements presented in this section are drawn from PubChem BioAssay (NCI).
